- Study system: AxCT mask27 EGFR EH104 L059 version 1
Endpoint label: Percent cleavage (%)

MMP-7 (protein) YSLFPNSPKWTSKVVTYRIVSYTRDLPHITVDRLVSKALNMWGKEIPLHFRKVVWGTADIMIGFARGAHGDSYPFDGPGNTLAHAFAPGTGLGGDAHFDEDERWTDGSSLGINFLYAATHELGHSLGMGHSSDPNAVMYPTYGNGDPQNFKLSQDDIKGIQKLYGKRSNSRKK = 0
Neutrophil Elastase (protein) IVGGRRARPHAWPFMVSLQLRGGHFCGATLIAPNFVMSAAHCVANVNVRAVRVVLGAHNLSRREPTRQVFAVQRIFENGYDPVNLLNDIVILQLNGSATINANVQVAQLPAQGRRLGNGVQCLAMGWGLLGRNRGIASVLQELNVTVVTSLCRRSNVCTLVRGRQAGVCFGDSGSPLVCNGLIHGIASFVRGGCASGLYPDAFAPVAQFVNWIDSIIQ = 15
Cathepsin G (protein) IIGGRESRPHSRPYMAYLQIQSPAGQSRCGGFLVREDFVLTAAHCWGSNINVTLGAHNIQRRENTQQHITARRAIRHPQYNQRTIQNDIMLLQLSRRVRRNRNVNPVALPRAQEGLRPGTLCTVAGWGRVSMRRGTDTLREVQLRVQRDRQCLRIFGSYDPRRQICVGDRRERKAAFKGDSGGPLLCNNVAHGIVSYGKSSGVPPEVFTRVSSFLPWIRTTMRS = 8
